For each record, write down the corresponding Kd.
# ASSAY TARGET: T1, EsCas13d, nuclease-dead (Eubacterium siraeum, UniProt B0MS50, R295A;H300A;R849A;H854A)
# T1 sequence: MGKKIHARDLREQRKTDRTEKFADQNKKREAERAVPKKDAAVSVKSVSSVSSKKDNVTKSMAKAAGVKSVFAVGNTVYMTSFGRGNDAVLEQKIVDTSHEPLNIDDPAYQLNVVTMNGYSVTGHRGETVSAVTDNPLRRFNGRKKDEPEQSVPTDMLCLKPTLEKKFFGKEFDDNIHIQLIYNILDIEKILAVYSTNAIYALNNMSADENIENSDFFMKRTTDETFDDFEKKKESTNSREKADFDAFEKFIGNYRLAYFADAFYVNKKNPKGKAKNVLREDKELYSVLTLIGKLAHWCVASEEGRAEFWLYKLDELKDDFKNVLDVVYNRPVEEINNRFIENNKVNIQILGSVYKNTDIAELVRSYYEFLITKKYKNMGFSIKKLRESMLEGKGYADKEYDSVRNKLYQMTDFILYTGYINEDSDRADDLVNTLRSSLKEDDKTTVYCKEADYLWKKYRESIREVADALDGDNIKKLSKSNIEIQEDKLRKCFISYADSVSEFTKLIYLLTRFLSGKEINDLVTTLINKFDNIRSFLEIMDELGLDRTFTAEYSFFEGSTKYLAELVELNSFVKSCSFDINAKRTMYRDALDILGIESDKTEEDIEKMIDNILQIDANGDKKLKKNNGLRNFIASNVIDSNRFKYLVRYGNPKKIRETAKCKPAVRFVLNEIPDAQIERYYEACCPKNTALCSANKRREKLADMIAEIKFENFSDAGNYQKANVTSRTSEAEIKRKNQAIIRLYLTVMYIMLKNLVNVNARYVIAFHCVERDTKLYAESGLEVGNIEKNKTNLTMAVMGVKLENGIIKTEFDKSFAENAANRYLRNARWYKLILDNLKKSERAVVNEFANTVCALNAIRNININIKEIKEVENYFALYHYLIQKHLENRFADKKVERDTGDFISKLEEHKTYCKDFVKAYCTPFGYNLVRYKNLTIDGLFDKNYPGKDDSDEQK
# ASSAY NOTES: crRNA (strand 1, pre-loaded); Mg2+; 40 mM Tris-HCl pH 7.5, 150 mM NaCl, 6 mM MgCl2, 1 mM DTT, 0.1% Tween-20, 0.2 mg/ml BSA; 25 C; 10 min per concentration, then washed
# RUN PARAMETERS: tags: His6-TwinStrep-SUMO cleaved; N-terminal SNAP kept (SNAP-Surface 488); label: 3' end held by stalled T7 RNA polymerase
Numbers only, in nM.

Known Kd results, listed for orientation:
{"BINDER": "target 2 MT 5'PFS UAG 3'PFS CGA (mixed) RNA 1: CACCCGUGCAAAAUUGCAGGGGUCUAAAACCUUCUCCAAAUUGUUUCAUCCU RNA 2: GGGAAUGGAUCCACAUCUACGAAUUCUAGAGGAUGAAACAAUUUGGAGAAGCGAAGAUCGGAAGAGCACACGU", "PROPERTY MEASURED": "Kd", "UNIT TAG": "nM", "REPORTED MEASUREMENT": 2.55}
{"BINDER": "target 1 U3G,C7U (mixed) RNA 1: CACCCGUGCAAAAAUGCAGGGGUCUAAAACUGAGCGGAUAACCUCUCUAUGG RNA 2: GGGAAUGGAUCCACAUCUACGAAUUCGUACCAUAGAGAGGUUAUUCGCGCACCGAGAUCGGAAGAGCACACGU", "PROPERTY MEASURED": "Kd", "UNIT TAG": "nM", "REPORTED MEASUREMENT": 5.39}
{"BINDER": "target 2 MT 5'PFS GCU 3'PFS CAU (mixed) RNA 1: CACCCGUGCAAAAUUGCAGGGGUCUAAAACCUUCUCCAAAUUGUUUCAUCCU RNA 2: GGGAAUGGAUCCACAUCUACGAAUUCGCUAGGAUGAAACAAUUUGGAGAAGCAUAGAUCGGAAGAGCACACGU", "PROPERTY MEASURED": "Kd", "UNIT TAG": "nM", "REPORTED MEASUREMENT": 9.8}
{"BINDER": "target 1 A1G,C22U (mixed) RNA 1: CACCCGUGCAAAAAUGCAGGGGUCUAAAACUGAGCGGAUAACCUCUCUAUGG RNA 2: GGGAAUGGAUCCACAUCUACGAAUUCGUAUCAUAGAGAGGUUAUCCGCUCGCCGAGAUCGGAAGAGCACACGU", "PROPERTY MEASURED": "Kd", "UNIT TAG": "nM", "REPORTED MEASUREMENT": 13.9}

Please give Kd, item by item, for the list that follows.
1. target 2 MT 5'PFS UCU 3'PFS AGA (mixed) RNA 1: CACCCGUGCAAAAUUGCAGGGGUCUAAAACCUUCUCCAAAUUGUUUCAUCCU RNA 2: GGGAAUGGAUCCACAUCUACGAAUUCUCUAGGAUGAAACAAUUUGGAGAAGAGAAGAUCGGAAGAGCACACGU
2. target 1 insC 3' of 22,insU 3' of 18 (mixed) RNA 1: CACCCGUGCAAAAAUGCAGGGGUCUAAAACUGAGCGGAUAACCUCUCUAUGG RNA 2: GGGAAUGGAUCCACAUCUACGAAUUCGUACCCAUAUGAGAGGUUAUCCGCUCACCGAGAUCGGAAGAGCACACGU
3. target 1 G17A,U19C (mixed) RNA 1: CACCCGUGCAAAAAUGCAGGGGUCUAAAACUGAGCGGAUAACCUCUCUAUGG RNA 2: GGGAAUGGAUCCACAUCUACGAAUUCGUACCACAAAGAGGUUAUCCGCUCACCGAGAUCGGAAGAGCACACGU
4. target 1 insC 3' of 12,insA 3' of 12 (mixed) RNA 1: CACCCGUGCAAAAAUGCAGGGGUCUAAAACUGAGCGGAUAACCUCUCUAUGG RNA 2: GGGAAUGGAUCCACAUCUACGAAUUCGUACCAUAGAGAGGCAUUAUCCGCUCACCGAGAUCGGAAGAGCACACGU
5. target 1 complement block 3-13 (mixed) RNA 1: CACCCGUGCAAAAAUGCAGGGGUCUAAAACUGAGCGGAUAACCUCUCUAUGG RNA 2: GGGAAUGGAUCCACAUCUACGAAUUCGUACCAUAGAGACCAAUAGGCGACACCGAGAUCGGAAGAGCACACGU

// result
1. 40
2. 38
3. 46
4. 14.7
5. 62

Please give Kd, item by item, for the list that follows.
1. target 3 G3A,A5U (mixed) RNA 1: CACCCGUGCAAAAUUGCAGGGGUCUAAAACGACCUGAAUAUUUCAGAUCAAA RNA 2: GGGAAUGGAUCCACAUCUACGAAUUCGUUUUUGAUCUGAAAUAUUCUGAUCUGCAGAUCGGAAGAGCACACGU
2. target 1 insC 3' of 20,insC 3' of 8 (mixed) RNA 1: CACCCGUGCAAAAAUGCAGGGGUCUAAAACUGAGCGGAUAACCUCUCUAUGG RNA 2: GGGAAUGGAUCCACAUCUACGAAUUCGUACCACUAGAGAGGUUAUCCCGCUCACCGAGAUCGGAAGAGCACACGU
3. target 1 C4G,G17U (mixed) RNA 1: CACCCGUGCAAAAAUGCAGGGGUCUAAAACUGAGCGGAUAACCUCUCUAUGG RNA 2: GGGAAUGGAUCCACAUCUACGAAUUCGUACCAUAUAGAGGUUAUCCGGUCACCGAGAUCGGAAGAGCACACGU
4. target 1 MT 5'PFS GGA 3'PFS CAU (mixed) RNA 1: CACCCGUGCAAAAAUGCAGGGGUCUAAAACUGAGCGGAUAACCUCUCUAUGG RNA 2: GGGAAUGGAUCCACAUCUACGAAUUCGGACCAUAGAGAGGUUAUCCGCUCACAUAGAUCGGAAGAGCACACGU
5. target 2 MT 5'PFS CUC 3'PFS UCU (mixed) RNA 1: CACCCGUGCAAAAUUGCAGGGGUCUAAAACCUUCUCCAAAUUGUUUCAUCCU RNA 2: GGGAAUGGAUCCACAUCUACGAAUUCCUCAGGAUGAAACAAUUUGGAGAAGUCUAGAUCGGAAGAGCACACGU
6. target 1 MT 5'PFS GCA 3'PFS CUA (mixed) RNA 1: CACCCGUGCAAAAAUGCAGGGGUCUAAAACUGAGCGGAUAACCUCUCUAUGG RNA 2: GGGAAUGGAUCCACAUCUACGAAUUCGCACCAUAGAGAGGUUAUCCGCUCACUAAGAUCGGAAGAGCACACGU

// result
61.5
15.2
39
50.5
5
18.4
